# assayText: chemical genetic growth profiling, strain panel (AID 1159580);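 note: tested at 20 µM; growth read once vehicle control cultures reached saturation at 30 °C; 1 = growth at the plate median or of vehicle wells; lower values mean less growth of the strain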
# testConditions: S. cerevisiae deletion strains, growth OD, locus YDL101C, strain DUN1, hits give low values
Hit rate of the full screen: of about 5,500 compounds, about 2,000 (36%) were called active. Not shown: some 18% with an inconclusive outcome. This is one part of the list.

- molecule: "C=NC(C(=O)NC1C(=O)N2C1SC(C)(C)C2C(=O)O)c1ccccc1 (stereo not given)"
  normalized growth: 1.01
- molecule: "NC1(C(=O)O)CCCC1"
  normalized growth: 1
- molecule: "Cc1cc(CC(=O)O)n(C)c1C(=O)c1ccc(Cl)cc1"
  normalized growth: 1
- molecule: "Cc1nnc(NS(=O)(=O)c2ccc(N)cc2)s1"
  normalized growth: 1
- molecule: "CC(=O)N[C@@H](CCC(=O)O)C(=O)O"
  normalized growth: 1.01
- molecule: "COc1cc2c(cc1OC)C1(O)C(=O)c3ccc(O)c(C(=O)O)c3OC1CO2 (stereo not given)"
  normalized growth: 0.991
- molecule: "O=C(Oc1ccc(Cl)cc1Cl)c1c(Cl)cccc1Cl"
  normalized growth: 0.979
- molecule: "COc1ccc2c(c1)OCC(Cc1ccc(OC)c(OC)c1)C2=O (stereo not given)"
  normalized growth: 0.982
- molecule: "FC(F)(F)c1cc(NC(=S)SCCSC(=S)Nc2cc(C(F)(F)F)cc(C(F)(F)F)c2)cc(C(F)(F)F)c1"
  normalized growth: 1
- molecule: "COc1ccc2c(c1)OCC(Cc1ccc(OC)c(OC(C)=O)c1)C2=O (stereo not given)"
  normalized growth: 0.988
- molecule: "Nc1ncnc(SCc2ccc(Cl)cc2)n1"
  normalized growth: 0.988
- molecule: "CN(C)CCC(c1ccccc1)c1ccccn1 (stereo not given)"
  normalized growth: 1.01
- molecule: "CCOC(=O)C(O)(c1ccc(N)c(C)c1)C(F)(F)F (stereo not given)"
  normalized growth: 0.996
- molecule: "Cc1cccc(N=NC(C(=O)C(F)(F)F)=C(O)c2cccs2)c1"
  normalized growth: 0.988
- molecule: "NC1(C(=O)O)CCC1"
  normalized growth: 0.992

====

# assayText: chemical genetic growth profiling, strain panel (AID 1159580);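 note: tested at 20 µM; growth read once vehicle control cultures reached saturation at 30 °C; 1 = growth at the plate median or of vehicle wells; lower values mean less growth of the strain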
# testConditions: S. cerevisiae deletion strains, growth OD, locus YNL271C, strain bni1, hits give low values
Screen size: about 5,500 compounds; about 2,000 (36%) were called active. Not shown: some 18% with an inconclusive outcome. The list shows a part of the results.
endpoint: normalized growth

- compound: "CCC(=O)OC1[C@@H]2CC3=C4CC(=O)O[C@@H](c5ccoc5)[C@]4(C)CCC3[C@@](C)(C2=O)[C@@H](CC(=O)OC)C1(C)C (stereo not given in full)"
  endpoint: "normalized growth"
  obsValue: 1.01
- compound: "CN=C(N)NCCCC(N)C(=O)O (stereo not given)"
  endpoint: "normalized growth"
  obsValue: 1.01
- compound: "C[C@]12CCC3c4ccc(OC(=O)c5ccccc5)cc4CCC3C1CCC2=O (stereo not given in full)"
  endpoint: "normalized growth"
  obsValue: 1.02
- compound: "CC12CCC3C(=CCc4cc(O)ccc43)C1CCC2=O (stereo not given)"
  endpoint: "normalized growth"
  obsValue: 0.974
- compound: "CC(=O)Oc1ccc2c(c1)CCC1C2CC[C@]2(C)C(=O)CCC12 (stereo not given in full)"
  endpoint: "normalized growth"
  obsValue: 1.02
- compound: "NCCCCC(=O)O"
  endpoint: "normalized growth"
  obsValue: 0.99
- compound: "COc1ccc(-c2cc(=O)c3c(OC)cc(OC)cc3o2)cc1"
  endpoint: "normalized growth"
  obsValue: 1.02
- compound: "O=C(O)COc1ccc(Cl)cc1Cl"
  endpoint: "normalized growth"
  obsValue: 1.02
- compound: "NCCCCCC(=O)O"
  endpoint: "normalized growth"
  obsValue: 1.02
- compound: "O=C(O)CCCCCCCC(=O)O"
  endpoint: "normalized growth"
  obsValue: 0.992

====

# assayText: chemical genetic growth profiling, strain panel (AID 1159580);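 note: tested at 20 µM; growth read once vehicle control cultures reached saturation at 30 °C; 1 = growth at the plate median or of vehicle wells; lower values mean less growth of the strain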
# testConditions: S. cerevisiae deletion strains, growth OD, locus YJR066W, strain TOR1 (second series), hits give low values
Out of some 5,500 compounds screened, about 2,000 (36%) were called active. Inconclusive results (about 18%) are left out. The list shows a part of the results.
// values below are reported normalized growth

- cpdSmiles: "Clc1ccc(Oc2ccnc3cc(Cl)ccc23)cc1"
  normalized growth: "0.684 (inactive)"
- cpdSmiles: "N#Cc1ccc(Oc2sccc2[N+](=O)[O-])cc1"
  normalized growth: "0.821 (inactive)"
- cpdSmiles: "FC(F)(F)c1cc(NC(=S)SCCSC(=S)Nc2cc(C(F)(F)F)cc(C(F)(F)F)c2)cc(C(F)(F)F)c1"
  normalized growth: "0.94 (inactive)"
- cpdSmiles: "O=C(Oc1ccc2ccccc2c1C1SCCS1)c1ccc([N+](=O)[O-])o1"
  normalized growth: "0.919 (inactive)"

====

// values below are reported normalized growth
# assayText: chemical genetic growth profiling, strain panel (AID 1159580);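 note: tested at 20 µM; growth read once vehicle control cultures reached saturation at 30 °C; 1 = growth at the plate median or of vehicle wells; lower values mean less growth of the strain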
# testConditions: S. cerevisiae deletion strains, growth OD, locus YLR058C, strain SHM2, hits give low values
Among all 5,500 compounds or so, about 2,000 (36%) were called active. Roughly 18% stayed inconclusive and do not appear here. Some of the results follow.
endpoint: normalized growth

- compound: "NC(C(=O)O)C(O)C(=O)O (stereo unspecified)"
  obsValue: 1.01
- compound: "COc1ccc2c(c1)OCC(Cc1ccc(OC)c(OC(C)=O)c1)C2=O (stereo unspecified)"
  obsValue: 0.995
- compound: "COC[C@]12CN(C=O)C3[C@@H]4[C@H](OC)C1[C@]3(C1CC3(O)C(OC)C(O)C4(OC(C)=O)C1C3OC(=O)c1ccccc1)[C@@H](OC)C[C@H]2O (stereo partly specified)"
  obsValue: 1.02
- compound: "NC(=O)NC1NC(=O)NC1=O (stereo unspecified)"
  obsValue: 0.99
- compound: "CCCNC(=O)NS(=O)(=O)c1ccc(Cl)cc1"
  obsValue: 1.02
- compound: "COC(=O)/C(C)=C\\CC12OC(C)(C)C3CC(C=C4C(=O)c5c(OC)c6c(c(CC=C(C)C)c5OC431)OC(C)(CCC=C(C)C)C=C6)C2=O (stereo unspecified)"
  obsValue: 0.993
- compound: "O=c1cccc2n1CC1CC2CN2CCCC[C@@H]12 (stereo partly specified)"
  obsValue: 0.978
- compound: "CN(C)CCC(c1ccccc1)c1ccccn1 (stereo unspecified)"
  obsValue: 1
- compound: "FC(F)(F)c1cccc(N2CCNCC2)c1"
  obsValue: 1.01
- compound: "CCCn1c(=O)c2[nH]c(C3CCCC3)nc2n(CCC)c1=O"
  obsValue: 0.982
- compound: "N[C@@H](C(=O)O)[C@@H](O)[C@H](O)[C@H](O)CO"
  obsValue: 1.01
- compound: "CC1OC(O[C@H]2/C=C/C=C/C=C/C=C/C=C/C=C/C=C/[C@H](C)[C@@H](O)[C@@H](C)[C@H](C)OC(=O)CC(O)CC(O)CCC(O)C(O)CC(O)C[C@]3(O)C[C@H](O)C(C(=O)O)C(C2)O3)C(O)[C@H](N)C1O (stereo partly specified)"
  obsValue: 0.984
- compound: "COc1ccc(CCC(=O)c2c(O)cc(O[C@@H]3O[C@H](CO)C(O)[C@H](O)C3O[C@@H]3O[C@@H](C)[C@H](O)[C@@H](O)[C@H]3O)cc2O)cc1O (stereo partly specified)"
  obsValue: 1
- compound: "Clc1ccc(C(c2ccccc2Cl)C(Cl)Cl)cc1 (stereo unspecified)"
  obsValue: 0.994
- compound: "O=C(O)C1CCCNC1 (stereo unspecified)"
  obsValue: 1.01
- compound: "CN1CCC[C@@H]1CCO[C@](C)(c1ccccc1)c1ccc(Cl)cc1"
  obsValue: 0.994
- compound: "CC(C)c1nc(N(C)S(C)(=O)=O)nc(-c2ccc(F)cc2)c1/C=C/[C@@H](O)C[C@@H](O)CC(=O)O"
  obsValue: 1
- compound: "NCC[C@@H](O)C(=O)N[C@@H]1C[C@H](N)[C@@H](O[C@H]2O[C@H](CN)[C@@H](O)[C@H](O)[C@H]2O)[C@H](O)[C@H]1O[C@H]1O[C@H](CO)[C@@H](O)[C@H](N)C1O (stereo partly specified)"
  obsValue: 1.01
- compound: "COc1cc(C)c2c(=O)cc(-c3ccccc3)oc2c1"
  obsValue: 0.975
- compound: "O=C(O)CCC1NCC2CC1CN1CCCCC21 (stereo unspecified)"
  obsValue: 1.01
- compound: "COC1=CC(=O)OC(CCc2ccc(OC)c(OC)c2)C1 (stereo unspecified)"
  obsValue: 1.01
- compound: "NC1(C(=O)O)CCCC1"
  obsValue: 1.01
- compound: "CC(C)=CC1C(C(=O)OCc2cccc(Oc3ccccc3)c2)C1(C)C (stereo unspecified)"
  obsValue: 0.993
- compound: "CC1CCC(NC(=O)N(CCCl)N=O)CC1 (stereo unspecified)"
  obsValue: 0.995
- compound: "O=C(O)C(O)C(O)C(O)C(O)C(=O)O (stereo unspecified)"
  obsValue: 1
- compound: "C1N2CN3CN1CN(C2)C3"
  obsValue: 0.976
